Documented growth inhibition across a set of compounds
experiment: NCI Yeast Anticancer Drug Screen. Data for the CLN2oe strain (AID 163);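 also: 0% = growth of vehicle-only control cultures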; conditions: S. cerevisiae CLN2oe strain, at 1.2 µM, hits give high values
This is part of a sample that, as a whole, favours compounds with a hit. Of some 79,000 tested, about 15% had one in any assay.
Your answer should be a plain number; it is taken to be in %.

Below, each entry is followed by its recorded growth inhibition result.
N#C/C(=C1C=C(Br)/C(=N\O)C=C\1Cl)c1cccc2ccccc12: -15
S=c1[nH]c2c(Cl)c(Cl)c(Cl)c(Cl)c2[nH]1: 9
COC(=O)c1oc([N+](=O)[O-])c(Cl)c1Cl: 98

Attention now turns to another entry.
# growth inhibition (compound: Oc1ccccc1N=Cc1ccc(Cl)cc1 ) is -4
